The reported numbers originate from ChEMBL document CHEMBL3232844.

assay: Cytotoxicity against human UO31 cells; type: functional; details: UO-31
Below, each entry is listed alongside its reported LC50.
Give the value in µM but do not write µM after it.

[
  {
    "smiles notation": "COc1cc(/C=C/c2cc(O)c3c(C/C=C(\\C)CCC=C(C)C)c[nH]c3c2)cc2c1O[C@]1(C)CC[C@@H](O)C(C)(C)[C@H]1C2",
    "LC50 (µM)": 8.91
  }
]

Ask: Give a short answer stating reported LC50 for COc1cc(/C=C/c2cc(O)c3c(c2)C[C@@H]2C(C)(C)[C@H](O)CC[C@@]2(C)O3)cc2[nH]cc(CC=C(C)C)c12 .
Reply: 69.2

Ask: Give a short answer stating reported LC50 for COc1cc(/C=C/c2cc(O)c3c(c2)C[C@@H]2C(C)(C)[C@H](O)CC[C@@]2(C)O3)cc2c1ccn2C .
Reply: 32.4

Ask: Give a short answer stating reported LC50 for COc1cc(/C=C/c2cc(OC)c3c(CC=C(C)C)c[nH]c3c2)cc2c1O[C@]1(C)CC[C@@H](O)C(C)(C)[C@H]1C2 .
Reply: 56.2

* * *

Below, each entry is listed alongside its reported TGI.
assay: Cytotoxicity against human OVCAR8 cells; assay type: functional; settings: OVCAR-8, read-out: pTGI (converted)
Give the value in µM but do not write µM after it.

[
  {
    "smiles notation": "COc1cc(/C=C/c2cc(O)c3c(c2)C[C@@H]2C(C)(C)[C@H](O)CC[C@@]2(C)O3)cc2c1ccn2C",
    "measurement name": "TGI",
    "assay result": 39.8
  }
]

Ask: Give a short answer stating reported TGI for COc1cc(/C=C/c2cc(O)c3cc[nH]c3c2)cc2c1O[C@]1(C)CC[C@@H](O)C(C)(C)[C@H]1C2 .
Reply: 30.9

Ask: Give a short answer stating reported TGI for COc1cc(/C=C/c2cc(O)c3ccn(C)c3c2)cc2c1O[C@]1(C)CC[C@@H](O)C(C)(C)[C@H]1C2 .
Reply: 77.6

Ask: Give a short answer stating reported TGI for CC1(C)[C@H](O)CC[C@@]2(C)Oc3c(O)cc(/C=C/c4cc(O)c5cc[nH]c5c4)cc3C[C@H]12 .
Reply: 42.7

Ask: Give a short answer stating reported TGI for COc1cc(/C=C/c2cc(OC)c3cc[nH]c3c2)cc2c1O[C@]1(C)CC[C@@H](O)C(C)(C)[C@H]1C2 .
Reply: 25.1

* * *

system: SW-620; assay: Cytotoxicity against human SW620 cells; assay type: functional; conditions: read-out: pLC50 (the source's name) (converted)
measurement name: CC50 (µM)
Give the value in µM but do not write µM after it.

[
  {
    "smiles notation": "COc1cc(/C=C/c2cc(O)c3c(c2)C[C@@H]2C(C)(C)[C@H](O)CC[C@@]2(C)O3)cc2[nH]cc(CC=C(C)C)c12",
    "unit annotation": "µM",
    "CC50": 21.4
  },
  {
    "smiles notation": "COc1cc(/C=C/c2cc(O)c3cc[nH]c3c2)cc2c1O[C@]1(C)CC[C@@H](O)C(C)(C)[C@H]1C2",
    "unit annotation": "µM",
    "CC50": 8.13
  },
  {
    "smiles notation": "CC1(C)[C@H](O)CC[C@@]2(C)Oc3c(O)cc(/C=C/c4cc(O)c5cc[nH]c5c4)cc3C[C@H]12",
    "unit annotation": "µM",
    "CC50": 6.46
  }
]

Ask: Give a short answer stating reported CC50 for COc1cc(/C=C/c2cc(OC)c3cc[nH]c3c2)cc2c1O[C@]1(C)CC[C@@H](O)C(C)(C)[C@H]1C2 .
Reply: 5.5

Ask: Give a short answer stating reported CC50 for COc1cc(/C=C/c2cc(OC)c3c(C/C=C(\C)CCC=C(C)C)c[nH]c3c2)cc2c1O[C@]1(C)CC[C@@H](O)C(C)(C)[C@H]1C2 .
Reply: 5.89

Ask: Give a short answer stating reported CC50 for COc1cc(/C=C/c2cc(O)c3cc(CC=C(C)C)[nH]c3c2)cc2c1O[C@]1(C)CC[C@@H](O)C(C)(C)[C@H]1C2 .
Reply: 39.8

Ask: Give a short answer stating reported CC50 for COc1cc(/C=C/c2cc(O)c3c(CC=C(C)C)c[nH]c3c2)cc2c1O[C@]1(C)CC[C@@H](O)C(C)(C)[C@H]1C2 .
Reply: 10.7

* * *

test system: MCF7; assay: Cytotoxicity against human MCF7 cells; assay type: functional
Below, each entry is listed alongside its reported GI50.
Give the value in nM but do not write nM after it.

[
  {
    "smiles notation": "COc1cc(/C=C/c2cc(O)c3c(CC=C(C)C)c[nH]c3c2)cc2c1O[C@]1(C)CC[C@@H](O)C(C)(C)[C@H]1C2",
    "unit annotation": "nM",
    "GI50": 355
  },
  {
    "smiles notation": "COc1cc(/C=C/c2cc(O)c3cc(CC=C(C)C)[nH]c3c2)cc2c1O[C@]1(C)CC[C@@H](O)C(C)(C)[C@H]1C2",
    "unit annotation": "nM",
    "GI50": 2450
  },
  {
    "smiles notation": "COc1cc(/C=C/c2cc(OC)c3cc[nH]c3c2)cc2c1O[C@]1(C)CC[C@@H](O)C(C)(C)[C@H]1C2",
    "unit annotation": "nM",
    "GI50": 389
  },
  {
    "smiles notation": "COc1cc(/C=C/c2cc(O)c3c(c2)C[C@@H]2C(C)(C)[C@H](O)CC[C@@]2(C)O3)cc2c1ccn2C",
    "unit annotation": "nM",
    "GI50": 661
  }
]

Ask: Give a short answer stating reported GI50 for CC1(C)[C@H](O)CC[C@@]2(C)Oc3c(O)cc(/C=C/c4cc(O)c5cc[nH]c5c4)cc3C[C@H]12 .
Reply: 1350

* * *

Below, each entry is listed alongside its reported GI50.
tested on: T47D; test: Cytotoxicity against human T47D cells; format: functional
Give the value in µM but do not write µM after it.

// below: answered molecules
[
  {
    "smiles notation": "COc1cc(/C=C/c2cc(OC)c3ccn(C)c3c2)cc2c1O[C@]1(C)CC[C@@H](O)C(C)(C)[C@H]1C2",
    "target or system": "T47D",
    "assay result": 4.37
  },
  {
    "smiles notation": "COc1cc(/C=C/c2cc(O)c3c(CC=C(C)C)c[nH]c3c2)cc2c1O[C@]1(C)CC[C@@H](O)C(C)(C)[C@H]1C2",
    "target or system": "T47D",
    "assay result": 5.25
  },
  {
    "smiles notation": "CC1(C)[C@H](O)CC[C@@]2(C)Oc3c(O)cc(/C=C/c4cc(O)c5cc[nH]c5c4)cc3C[C@H]12",
    "target or system": "T47D",
    "assay result": 7.59
  }
]

Switching to the query record.
Ask: Give a short answer stating reported GI50 for COc1cc(/C=C/c2cc(OC)c3c(C/C=C(\C)CCC=C(C)C)c[nH]c3c2)cc2c1O[C@]1(C)CC[C@@H](O)C(C)(C)[C@H]1C2 .
Reply: 7.24

* * *

test system: LOX IMVI; test: Cytotoxicity against human LOXIMVI cells; format: functional; details: read-out: pLC50 (the source's name) (converted)
Checkbox rule: CC50 lower than 30 µM = Y; CC50 not lower than 30 µM = N.

Solved entries (count: 5):
[
  {
    "smiles notation": "COc1cc(/C=C/c2cc(OC)c3c(CC=C(C)C)c[nH]c3c2)cc2c1O[C@]1(C)CC[C@@H](O)C(C)(C)[C@H]1C2",
    "class name": "Y"
  },
  {
    "smiles notation": "COc1cc(/C=C/c2cc(O)c3c(c2)C[C@@H]2C(C)(C)[C@H](O)CC[C@@]2(C)O3)cc2c1ccn2C",
    "class name": "Y"
  },
  {
    "smiles notation": "COc1cc(/C=C/c2cc(OC)c3ccn(C)c3c2)cc2c1O[C@]1(C)CC[C@@H](O)C(C)(C)[C@H]1C2",
    "class name": "N"
  },
  {
    "smiles notation": "COc1cc(/C=C/c2cc(O)c3c(CC=C(C)C)c[nH]c3c2)cc2c1O[C@]1(C)CC[C@@H](O)C(C)(C)[C@H]1C2",
    "class name": "N"
  },
  {
    "smiles notation": "COc1cc(/C=C/c2cc(O)c3ccn(C)c3c2)cc2c1O[C@]1(C)CC[C@@H](O)C(C)(C)[C@H]1C2",
    "class name": "N"
  }
]

In the following, a different compound is considered.
Ask: Problem: For the compound COc1cc(/C=C/c2cc(OC)c3cc[nH]c3c2)cc2c1O[C@]1(C)CC[C@@H](O)C(C)(C)[C@H]1C2 , is CC50 under 30 µM?
Reply: Y
